Test system: Rattus norvegicus
test_details: Duration of inhibition of AII pressor response no longer observed in conscious normotensive rats at 1 mg/Kg p.o.
Type: functional
measured_endpoint: Duration

>>> recorded_measurement("CCCCc1nc(Cl)c(CO)n1Cc1ccc(-c2ccccc2-c2nnn[nH]2)cc1")
">2 h"
>>> recorded_measurement("CCCCc1nn(CC(C)(C)C)c(=O)n1Cc1ccc(-c2ccccc2-c2nn[nH]n2)cc1")
"2.5 h"
>>> recorded_measurement("CCCCc1nn(-c2ccccc2[N+](=O)[O-])c(=O)n1Cc1ccc(-c2ccccc2-c2nn[nH]n2)cc1")
"5.2 h"
>>> recorded_measurement("CCCCc1nn(-c2ccccc2C(F)(F)F)c(=O)n1Cc1ccc(-c2ccccc2-c2nn[nH]n2)cc1")
">6 h"
>>> recorded_measurement("CCCCc1nn(C(C)C(=O)O)c(=O)n1Cc1ccc(-c2ccccc2-c2nn[nH]n2)cc1 (stereo unspecified)")
"1.8 h"
>>> recorded_measurement("CCCCc1nc(Cl)c(C(=O)O)n1Cc1ccc(-c2ccccc2-c2nn[nH]n2)cc1 [CARBOXYLIC ACID METABOLITE]")
">7 h"
